testedOn: human IL-13 variant (R130Q) (human, UniProt P35225 35-146)
Sequence (P35225 35-146 limits assumed, stated change not applied): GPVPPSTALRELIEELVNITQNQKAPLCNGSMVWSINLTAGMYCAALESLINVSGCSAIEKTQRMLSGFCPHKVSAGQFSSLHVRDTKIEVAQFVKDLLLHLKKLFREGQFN
measurementDescription: cell-based or functional assay
Form field: Potency (IC50), A-549 bioassay (one value per entry).
The answer is to be given in nM; state only the numeric part.

* 5G1.5 (antibody, human IgG1, V domains shown, Humanized; The heavy chain row is printed 'VN 5G1.5') VH: QVQLVQSGAEVKKPGASVKVSCKASGYTFTTYGVSWVRQAPGQGLEWIGEIYPGNYNTYYNEKFRGKATLTADKSTSTAYMELSSLRSEDTAVYYCSRWRTSYFSDYGYFDYWGQGTLVTVSS VL: DIVMTQSPLSLPVTPGQPASISCRSSQSLVHSHGNTYLHWYLQKPGQSPKLLIYTVSNRFSGVPDRFSGSGSGTDFTLKISRVEAEDVGVYYCSQSTHVPYTFGGGTKVEIK | 0.0655
* 5G1.2 (antibody, human IgG1, V domains shown, Humanized) VH: EVQLVQSGAEVKKPGASVKVSCKASGYTFTTYGVSWVRQAPGQGLEWIGEIYPGNYNTYYNEKFRGKATLTADKSTSTAYMELSSLRSDDTAVYFCSRWRTSYFSDYGYFDYWGQGTTVTVSS VL: DVVMTQSPLSLPVTLGQPASISCRSSQSLVHSHGNTYLHWYQQRPGQSPRLLIYTVSNRFSGVPDRFSGSGSGTDFTLKISRVEAEDVGVYFCSQSTHVPYTFGGGTKVEIKR | 0.0553

*Q* Please give the documented Potency (IC50), A-549 bioassay of 13C5.1 (antibody, human IgG1, V domains shown, Humanized) VH: EVTLKESGPVLVKPTETLTLTCTFSGFSLSTSDMGVDWIRQPPGKALEWLAHIWWDDVKRYNPALKSRLTISKDTSKSQVVLTMTNMDPVDTATYYCARTVSSGYIYYAMDYWGQGTTVTVSS VL: DIQMTQSPSSLSASVGDRVTITCRASQDIRNYLNWYQRKPGKVVKLLIYYTSKLHSGVPSRFSGSGSGTDFTLTISSLQPEDVATYYCQQGNTLPLTFGGGTKVEIKR
*A* 0.369
